# Test: Pharmacokinetics in brain tissue after a single oral dose (HPLC-MS/MS)
# Format: in vivo, CD1 IGS mice
# Measurement context: CD1 IGS, mouse; brain, single oral 10 mg/kg; read-out: MRT0-inf_obs (converted)
Measured attribute: MRT inf

C=C(C)[C@@H]1CC=C(C)[C@@H](Sc2nc[nH]n2)[C@@H]1O ... 21.5 min

---

# Test: Pharmacokinetics in whole blood after a single oral dose (HPLC-MS/MS)
# Assay type: in vivo, CD1 IGS mice
# Measurement context: CD1 IGS, mouse, whole blood; blood, single oral 10 mg/kg
Measured attribute: Tmax (min)

C=C(C)[C@@H]1CC=C(C)[C@@H](Sc2nc[nH]n2)[C@@H]1O [PA96] ... 5
